Each recorded value in this set is attributed to a melting point compilation (Tetko et al.; mined from patent text by program, amines drawn as free bases though some values may be those of a salt).

measured.property: melting point

Worked examples, 4 compounds total:
CCn1ncc2cc3c(nc21)C(O)c1ccccc1CC3 (stereo not given)
130 to 132 °C
COC1CCC2C3C(C)CC4=CC(=O)C(C)CC4(C)C3CCC12C (stereo not given)
123 to 126 °C
CCNC(=NC#N)NCCN(CC1CCc2ccccc2O1)C(=O)OC(C)(C)C (stereo not given)
115 °C
CN(C)CCCN=C1CC(c2ccc(C(F)(F)F)cc2)Cc2[nH]c3ccc(Cl)cc3c(=O)c21 (stereo not given)
211 to 213 °C

For the next question, use this compound.
Recorded melting point for COc1ccc([N+](=O)[O-])c(F)c1 , please?
47 to 49 °C

* * *

measured.property: melting point

Worked examples, 5 compounds total:
O=C1c2ccccc2CN1C1CCN(CCCCC2(C(=O)NCC(F)(F)F)c3ccccc3-c3ccccc32)CC1
143 to 146 °C
Cc1cc(=O)[nH]nc1-c1ccc2c(c1)C(C)CC(=O)N2 (configuration not stated)
> 300 °C
C[C@H](NC(=O)c1c(F)cccc1[N+](=O)[O-])C(=O)O
142 to 144 °C
COc1ccc(N2C=Cc3cc(S(N)(=O)=O)sc3S2(=O)=O)cc1
90 to 92 °C
Cc1nc(S(=O)(=O)N(C(=O)c2ccccc2)c2c(F)cccc2F)nn1-c1ncccn1
218 to 221 °C

Recorded melting point for C=C1[C@@H](NC(=O)C(F)(F)F)CC(O)O[C@H]1C (some centres not stated) , please?
168 to 170 °C

Try the compound CCn1c(Cl)nc2cc(C(F)(F)F)c(Cl)c(N)c21
134 to 142 °C

Try the compound O=c1c(Cl)c(Cl)cnn1COCc1ccccc1
60 to 64 °C

Try the compound CCOC(=O)c1ccc2c(N)cccc2c1
94 to 95 °C

* * *

Recorded melting point for the following compounds

CCCNCC(O)c1cccc(Br)c1 (centres undefined)
79.7 to 81.4 °C
O=[N+]([O-])c1ccc(Oc2c(Cl)cc(S(=O)(=O)NC(=NO)Nc3ccc(Cl)cc3)cc2Cl)cc1
212 °C
CC(=O)OCC(=O)C1(O)C(C)CC2C3CCC4=CC(=O)CCC4(C)C3=CCC21C (centres undefined)
197 to 201 °C

Recorded melting point for CCCc1nn(-c2ccc(C(F)(F)F)cn2)cc1CCCOc1c(C)cccc1CC(=O)O , please?
134 to 135 °C

Try the compound N#Cc1cc(N)ccc1N(CCO)CCO
38 °C

Try the compound CC(=O)NN1CCN(C(=O)Cn2c(=O)sc3ccc(Cl)cc32)CC1
284 to 285 °C

Try the compound CCCCc1oc2ccc(-c3nc(C)no3)cc2c1C(=O)c1ccc(O)cc1
180 to 182 °C

Try the compound OC(Cn1cncn1)(c1ccc(Cl)cn1)c1ccc(Cl)cc1Cl (centres undefined)
149 to 150 °C

Try the compound C#CCN(Cc1cc2c(=O)n(CCN(C)C)c(CN3CCCCC3)nc2cc1Cl)c1ccc(C(=O)OC(C)(C)C)cc1
75 to 77 °C

* * *

measured.property: melting point

Nc1ccc(CCNC(=O)C(F)(F)F)cc1
81 to 85 °C
O=c1cc(-c2ccncc2)nc2n1Cc1ccccc1N2
315 to 317 °C
Cc1c(C)c2c(c(C)c1OCc1ccccc1)CCC(C)(C(=O)O)O2 (stereo unspecified)
154 to 155 °C
COc1ccc(Cl)cc1N1CCN(CCCNC(=O)c2c(-c3ccccc3)noc2C)CC1
139 to 142 °C
CC(=O)NC(C)Cc1ccc(CCCC(=O)O)cc1 (stereo unspecified)
114 to 117 °C

Recorded melting point for O=C(O)c1cccc(COc2cccc(OCc3ccc4ccccc4n3)c2)c1 , please?
149 to 151 °C

Try the molecule O=C1CCC(N2Cc3c(OCc4ccc(CNCCO)cc4)cccc3C2=O)C(=O)N1 (stereo unspecified)
251 to 253 °C

Try the molecule O=C(O)CCN1C(=O)c2ccc([N+](=O)[O-])cc2C1=O
206 to 208 °C

Try the molecule CC(C)NC(=O)c1cc(Cl)nc(Cl)c1NC(=O)c1cc(C(F)(F)F)nn1-c1ncccc1Cl
240 to 242 °C

Try the molecule CCCC(CCC)C(=O)NC(=O)C(N)c1ccccc1 (stereo unspecified)
190 to 191 °C

Try the molecule CNC(=O)c1ccc(C=C2CC3CCC(C2)N3)cc1
164 to 166 °C

Try the molecule CN1CCCN(C)P1(=O)Cc1ccc(NC(=O)C2=Cc3cc(-c4ccccc4)ccc3CC2)cc1
249 to 250 °C

Try the molecule COc1ccc(NN=C(Sc2ccc(C)cc2C)C(C)=O)cc1
109 to 111 °C

Try the molecule O=C(O)CCOCCCc1ccc(-c2nc(=O)c3ccccc3s2)nc1
145 to 147 °C

Try the molecule Cn1cc(-c2ccccc2)c(=O)c(-c2ccc(Cl)c(Cl)c2)c1
166 °C

Try the molecule COC(=O)c1ccc(O)c(C(=O)CC(=O)c2ccccc2OCc2ccccc2)c1
95 to 97 °C

Try the molecule COc1ccc(CN2CCc3cc(O)ccc3C2)cc1
158 to 160 °C

Try the molecule CC1CC(=O)NN=C1c1ccc(NC(=NC#N)NCCc2ccccc2)cc1 (stereo unspecified)
209 to 210 °C

Try the molecule CCCNC(=O)N(C)Cc1cccc2c1C(=O)N(C1CCC(=O)NC1=O)C2=O (stereo unspecified)
210 to 212 °C

Try the molecule CCOC(=O)N(N)C(=O)c1ccccc1O
126 °C

Try the molecule CCOC(=O)CC(=O)c1ccc([N+](=O)[O-])c(C)c1
48 to 50 °C

* * *

Recorded melting point for the following molecules

CC(N)C(Cc1ccc(OCc2ccccc2)cc1)CC(O)c1ccccc1F (centres undefined)
162 to 163 °C

Recorded melting point for CN(C(=O)c1ccccc1)C1CCC(=O)CC1 , please?
126 to 128 °C

Try the molecule O=C(O)c1cccc(NC(=O)C(CS)Cc2cccnc2)c1 (centres undefined)
94 to 97 °C

Try the molecule C[Si](C)(C)C#Cc1ccc(C#Cc2ccc(F)cc2)cc1
144 to 146 °C

Try the molecule O=C(Nc1ccc(C(CC2CCCC2)C(=O)Nc2nccs2)cc1)c1cccnc1 (centres undefined)
240 to 242 °C

Try the molecule CCNC(=NC#N)NCC(=O)N(C)c1ccc(Cl)c(COc2cccn3c(Br)c(C)nc23)c1Cl
> 250 °C

Try the molecule COc1ccc(C2Sc3cc(Oc4ccccc4)ccc3N(CCN(C)C)C(=O)C2OC(C)=O)cc1F (centres undefined)
167 to 168 °C

Try the molecule CC(C)(C)OCc1cc(Oc2ccc(C(F)(F)F)cc2Cl)ccc1[N+](=O)[O-]
75 to 78 °C

Try the molecule COc1cc(F)ccc1Oc1c(Cl)ncnc1NS(=O)(=O)c1ccc(C(C)(C)C)cc1
146 to 147 °C

* * *

Recorded melting point for the following compounds

Worked examples, 8 compounds total:
CN(C)CCCC(=O)OC[C@@H]1CC(c2ccc(-c3ccc(N4C[C@H](Cn5ccnn5)OC4=O)cc3F)cn2)=NO1
148 °C
N#CCc1cccc2c1C=CN(C(=O)c1ccccc1)C2C#N (stereo unspecified)
66.4 to 69.7 °C
COC(=O)C(O)C(CC(C)C)NCc1ccccc1 (stereo unspecified)
89 to 90 °C
CCn1c([N+](=O)[O-])cnc1-c1nnc2ccc(N)nn12
218 to 222 °C
O=C(CCCCN1CCC(Cc2ccccc2)CC1)c1ccc2c(c1)Cc1cc(C(=O)CCCCN3CCC(Cc4ccccc4)CC3)ccc1-2
147 to 149 °C
O=C(O)C1Oc2cc(Cl)c(S(=O)(=O)c3ccc4c(c3)OCO4)cc2O1 (stereo unspecified)
182 to 184 °C
CC(C)(C)c1ccc(OCC(O)CN2CCC(N3CCC4(CC3)CSC3=C(O4)c4ccccc4C(=O)C3=O)CC2)cc1 (stereo unspecified)
190 to 193 °C
Clc1ccc(N2CCN(Cc3c[nH]c4ncccc34)CC2)cc1
226 to 227 °C

Recorded melting point for Cc1csc(C(C)(O)c2nc(C)cs2)n1 , please?
82 to 84 °C

Try the compound CC(C(=O)O)c1cccc2c1Oc1ccccc1CC2 (stereo unspecified)
133 to 134 °C

Try the compound COC(=O)c1cccc(-c2nc(COc3ccc(C=O)cc3OC)c(C)o2)c1
168 to 169 °C

Try the compound CCN(CC)C(=O)c1cc(O)c(O)c([N+](=O)[O-])c1
145 to 146 °C

* * *

Recorded melting point for the following compounds

CCCOc1ccccc1-c1nc2nc(SC)ncc2c(=O)[nH]1
179 to 181 °C
Cc1ccnc2c1N(O)C(=O)c1cccnc1N2C1CC1
239 to 241 °C
N#CC1=C(C2CCCC2)Nc2n[nH]cc2C1c1cccc2nonc12 (stereo not given)
193 °C
CNC(=O)c1ccc(C=CC(=O)NCC(=O)N(C)c2ccc(C)c(COc3cccc4c3nc(S)n4C)c2C)cc1
278 to 292 °C
CC1(C)CC(=O)c2c(NCc3ccccn3)sc(-c3cc[nH]n3)c2C1
210 to 213 °C

Recorded melting point for COc1ccc(NN)c(C)c1 , please?
105 °C

Try the compound Cc1ccc(-c2ccc(C(=O)Nc3ccc4cc(CN5CCCC5)cnc4c3F)cc2)cc1
210 to 213 °C

Try the compound COc1cccc(C(=O)OC2CC3C(=O)NC4(C(=O)NS(=O)(=O)C5CC5)CC4C=CCOCCCC(NC(=O)OC(C)(C)C)C(=O)N3C2)c1 (stereo not given)
149 to 151 °C

Try the compound Cc1ccc(N)cc1Nc1cc(-c2cncnc2)ccn1
179 to 180 °C

Try the compound CON=Cc1ccc2c(c1)ncn2-c1cccc(-c2ccncn2)c1
180 to 182 °C
